Test system: L-02 cells
Procedure summary: CCK-8 cytotoxicity assay, normal liver L-02
Assay type: cell-based
Stated conditions: Homo sapiens, L02; CCK-8, 48 h, normal liver cells, mean ± SD of three experiments; read-out: IC50 L-02
Metric: IC50

Observe how each entry below is paired with its result.
Compound	Metric	Result
C[C@H]1CCC/C=C/[C@@H]2C[C@H](OC(=O)/C=C\C(=O)OCCCCCCOC(=O)c3ccc(N=C=S)cc3)C[C@H]2[C@H](OC(=O)/C=C\C(=O)OCCCCCCOC(=O)c2ccc(N=C=S)cc2)/C=C/C(=O)O1 [Compound 8k]	IC50	> 80 µM
C[C@H]1CCC/C=C/[C@@H]2C[C@H](OC(=O)CCC(=O)OCCCCOC(=O)c3ccc(N=C=S)cc3)C[C@H]2[C@H](OC(=O)CCC(=O)OCCCCOC(=O)c2ccc(N=C=S)cc2)/C=C/C(=O)O1 [Compound 8b]	IC50	> 80 µM

Then this compound:
# input Fill in the blank: the reported IC50 of C[C@H]1CCC/C=C/[C@@H]2C[C@H](OC(=O)CCC(=O)Oc3ccc(OC(=O)c4ccc(N=C=S)cc4)cc3)C[C@H]2[C@H](OC(=O)CCC(=O)Oc2ccc(OC(=O)c3ccc(N=C=S)cc3)cc2)/C=C/C(=O)O1 [Compound 8f] is ____.
# output > 80 µM

---

Listed here are compounds together with their documented IC50.
System: L-02 cells
Procedure summary: CCK-8 cytotoxicity assay, normal liver L-02
Assay type: cell-based
Stated conditions: Homo sapiens, L02; CCK-8, 48 h, normal liver cells, mean ± SD of three experiments; read-out: IC50 L-02

# input # lookup: IC50 of C[C@H]1CCC/C=C/[C@@H]2C[C@H](OC(=O)CCC(=O)OCC#CCOC(=O)c3ccc(N=C=S)cc3)C[C@H]2[C@H](OC(=O)CCC(=O)OCC#CCOC(=O)c2ccc(N=C=S)cc2)/C=C/C(=O)O1
# output > 80 µM

# input Any idea what IC50 was measured for C[C@H]1CCC/C=C/[C@@H]2C[C@H](OC(=O)CCC(=O)OCCOC(=O)c3ccc(N=C=S)cc3)C[C@H]2[C@H](OC(=O)CCC(=O)OCCOC(=O)c2ccc(N=C=S)cc2)/C=C/C(=O)O1 ?
# output > 80 µM

# input Using the record for C[C@H]1CCC/C=C/[C@@H]2C[C@H](OC(=O)CCC(=O)OCCCCCCOC(=O)c3ccc(N=C=S)cc3)C[C@H]2[C@H](OC(=O)CCC(=O)OCCCCCCOC(=O)c2ccc(N=C=S)cc2)/C=C/C(=O)O1 , report its IC50.
# output > 80 µM

---

System: HeLa cells
Procedure summary: CCK-8 antiproliferative assay, HeLa
Assay type: cell-based, human
Stated conditions: SI = IC50(L-02)/IC50(HeLa)
Parameter: SIHeLa, selectivity index between L-02 and HeLa. Scope: all listed entries.

# annotated cases, reported SIHeLa, selectivity index between L-02 and HeLa shown
C[C@H]1CCC/C=C/[C@@H]2C[C@H](OC(=O)CCC(=O)OCCCCOC(=O)c3ccc(N=C=S)cc3)C[C@H]2[C@H](OC(=O)CCC(=O)OCCCCOC(=O)c2ccc(N=C=S)cc2)/C=C/C(=O)O1 >4.88
C[C@H]1CCC/C=C/[C@@H]2C[C@H](OC(=O)CCC(=O)OCCCCCCOC(=O)c3ccc(N=C=S)cc3)C[C@H]2[C@H](OC(=O)CCC(=O)OCCCCCCOC(=O)c2ccc(N=C=S)cc2)/C=C/C(=O)O1 >2.99

# input for lookup
# input Item C[C@H]1CCC/C=C/[C@@H]2C[C@H](OC(=O)CCC(=O)OCC#CCOC(=O)c3ccc(N=C=S)cc3)C[C@H]2[C@H](OC(=O)CCC(=O)OCC#CCOC(=O)c2ccc(N=C=S)cc2)/C=C/C(=O)O1 has what recorded SIHeLa, selectivity index between L-02 and HeLa?
# output >2.05
